Molecular target: HDAC2 (Homo sapiens, UniProt Q92769)
Construct: purchased Reaction Biology Corporation (assay run by the CRO)
Sequence (Q92769 whole entry): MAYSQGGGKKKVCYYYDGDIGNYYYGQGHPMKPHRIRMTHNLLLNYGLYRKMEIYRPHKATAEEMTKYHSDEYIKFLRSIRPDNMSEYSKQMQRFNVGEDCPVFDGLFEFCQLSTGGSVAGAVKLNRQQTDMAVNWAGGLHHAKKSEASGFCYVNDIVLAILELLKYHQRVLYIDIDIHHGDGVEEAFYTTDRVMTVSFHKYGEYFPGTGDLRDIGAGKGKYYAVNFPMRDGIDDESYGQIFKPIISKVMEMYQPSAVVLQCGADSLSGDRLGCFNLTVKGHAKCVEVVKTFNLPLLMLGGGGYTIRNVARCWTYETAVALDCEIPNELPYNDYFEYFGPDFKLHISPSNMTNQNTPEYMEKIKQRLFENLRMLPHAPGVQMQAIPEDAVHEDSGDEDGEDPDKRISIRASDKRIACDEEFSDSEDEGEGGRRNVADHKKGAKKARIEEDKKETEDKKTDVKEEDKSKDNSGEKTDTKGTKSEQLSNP
Test: HDAC2 inhibition, full IC50 measurement (Reaction Biology; fluorogenic p53 peptide RHKK(Ac)AMC)
Format: biochemical
Conditions: Conc. 3.33E-06 M, t2
Peptide text beside a SMILES is read from it.
Quick list: HDAC2 activity raw data (signal) per entry.
ENDPOINT_LABEL: HDAC2 activity raw data (signal)

{"COMPOUND": "NCCCC[C@@H]1NC(=O)[C@@H]2CCCN2C(=O)[C@H](CC(N)=O)NC(=O)[C@H](CCCCCS)NC(=O)CNC(=O)[C@H](Cc2c[nH]c3ccccc23)NC(=O)[C@@H](CCCCN)NC(=O)[C@H](CCC(N)=O)NC1=O [des1.1.0, SHA-Asn-Pro-Lys-Gln-dLys-Trp-Gly] (HELM PEPTIDE1{G.[O=C([C@H](CCCCCS)N[*:1])[*:2]].N.P.K.Q.[dK].W}$PEPTIDE1,PEPTIDE1,1:R1-8:R2$$$V2.0)", "REPORTED_MEASUREMENT": 85727}
{"COMPOUND": "N=C(N)NCCC[C@@H]1NC(=O)[C@H](Cc2c[nH]c3ccccc23)NC(=O)[C@H](CC(=O)O)NC(=O)[C@@H](CO)NC(=O)[C@H](Cc2c[nH]c3ccccc23)NC(=O)[C@H](CCCCCS)NC(=O)[C@H](CCC(N)=O)NC1=O [des4.1.0, SHA-Trp-dSer-Asp-Trp-Arg-Gln] (HELM PEPTIDE1{D.W.R.Q.[O=C([C@H](CCCCCS)N[*:1])[*:2]].W.[dS]}$PEPTIDE1,PEPTIDE1,1:R1-7:R2$$$V2.0)", "REPORTED_MEASUREMENT": 16353}
{"COMPOUND": "CC(C)C[C@H]1NC(=O)[C@H](Cc2c[nH]c3ccccc23)NC(=O)[C@H](CCCCCS)NC(=O)[C@@H](Cc2ccc(O)cc2)NC(=O)[C@@H](C(C)C)NC(=O)[C@H](Cc2c[nH]cn2)NC(=O)CNC(=O)CNC(=O)[C@@H](CO)NC1=O [des2.2.0, SHA-Trp-dLeu-dSer-Gly-Gly-His-dVal-dTyr] (HELM PEPTIDE1{G.G.H.[dV].[dY].[O=C([C@H](CCCCCS)N[*:1])[*:2]].W.[dL].[dS]}$PEPTIDE1,PEPTIDE1,1:R1-9:R2$$$V2.0)", "REPORTED_MEASUREMENT": 996724}
{"COMPOUND": "CCCC[C@H]1NC(=O)[C@H](Cc2ccccc2)NC(=O)[C@H](CCCCCS)NC(=O)[C@@H](CCCNC(=N)N)NC(=O)[C@H](C)NC(=O)[C@@H](CO)NC(=O)[C@@H](C)NC(=O)[C@H](CCCCN)NC1=O [des4.3.1.3, SHA-Phe-dNle-Lys-dAla-dSer-Ala-dArg] (HELM PEPTIDE1{A.[dR].[O=C([C@H](CCCCCS)N[*:1])[*:2]].F.[CCCC[C@@H](N[*:1])C(=O)[*:2]].K.[dA].[dS]}$PEPTIDE1,PEPTIDE1,1:R1-8:R2$$$V2.0)", "REPORTED_MEASUREMENT": 555133}

====

Target: HDAC6 (Homo sapiens)
Construct: purchased Reaction Biology Corporation (assay run by the CRO)
Sequence (Q9UBN7 whole entry): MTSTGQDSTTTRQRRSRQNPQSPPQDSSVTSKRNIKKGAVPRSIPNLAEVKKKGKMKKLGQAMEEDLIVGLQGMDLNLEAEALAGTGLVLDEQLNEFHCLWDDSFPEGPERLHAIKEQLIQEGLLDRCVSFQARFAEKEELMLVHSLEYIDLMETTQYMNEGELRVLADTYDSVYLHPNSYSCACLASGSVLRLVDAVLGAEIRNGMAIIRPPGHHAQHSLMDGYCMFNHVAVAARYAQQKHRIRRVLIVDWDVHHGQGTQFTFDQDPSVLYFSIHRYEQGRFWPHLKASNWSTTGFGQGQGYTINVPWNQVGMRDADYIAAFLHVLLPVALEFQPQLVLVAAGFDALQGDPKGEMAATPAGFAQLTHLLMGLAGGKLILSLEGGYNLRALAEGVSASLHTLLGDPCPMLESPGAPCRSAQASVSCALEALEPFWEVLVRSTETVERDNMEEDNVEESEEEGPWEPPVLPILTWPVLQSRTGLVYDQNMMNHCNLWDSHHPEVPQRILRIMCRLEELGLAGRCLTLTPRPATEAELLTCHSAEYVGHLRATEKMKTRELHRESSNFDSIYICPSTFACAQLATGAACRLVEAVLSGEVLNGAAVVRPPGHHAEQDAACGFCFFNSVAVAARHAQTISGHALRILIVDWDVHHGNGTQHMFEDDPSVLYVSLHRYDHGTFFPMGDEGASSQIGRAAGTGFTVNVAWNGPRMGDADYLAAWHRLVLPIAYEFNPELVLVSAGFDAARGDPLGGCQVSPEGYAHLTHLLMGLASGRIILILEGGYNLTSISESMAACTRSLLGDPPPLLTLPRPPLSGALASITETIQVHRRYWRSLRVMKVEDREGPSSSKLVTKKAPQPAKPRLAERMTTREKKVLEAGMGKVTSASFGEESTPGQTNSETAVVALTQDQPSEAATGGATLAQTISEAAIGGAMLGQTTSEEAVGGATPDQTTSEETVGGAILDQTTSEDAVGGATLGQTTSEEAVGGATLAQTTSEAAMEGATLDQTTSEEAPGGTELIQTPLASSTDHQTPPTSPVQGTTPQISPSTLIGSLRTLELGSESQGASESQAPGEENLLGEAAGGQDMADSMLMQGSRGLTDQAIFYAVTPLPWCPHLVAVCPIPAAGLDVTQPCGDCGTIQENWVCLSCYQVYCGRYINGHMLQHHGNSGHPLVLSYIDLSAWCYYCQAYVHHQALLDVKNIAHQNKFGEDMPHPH
Experiment: HDAC6 inhibition, full IC50 measurement (Reaction Biology; fluorogenic p53 peptide RHKK(Ac)AMC)
Format: biochemical
Conditions: Conc. 4.57E-09 M, t2
Peptide text beside a SMILES is read from it.

{"COMPOUND": "N=C(N)NCCC[C@@H]1NC(=O)[C@H](Cc2c[nH]c3ccccc23)NC(=O)[C@H](CC(=O)O)NC(=O)[C@@H](CO)NC(=O)[C@H](Cc2c[nH]c3ccccc23)NC(=O)[C@H](CCCCCS)NC(=O)[C@H](CCC(N)=O)NC1=O [des4.1.0, SHA-Trp-dSer-Asp-Trp-Arg-Gln] (HELM PEPTIDE1{D.W.R.Q.[O=C([C@H](CCCCCS)N[*:1])[*:2]].W.[dS]}$PEPTIDE1,PEPTIDE1,1:R1-7:R2$$$V2.0)", "EXPERIMENTAL_TARGET": "HDAC6 (Homo sapiens)", "HDAC6 activity raw data (signal)": 2168070}
{"COMPOUND": "CC(C)C[C@H]1NC(=O)[C@H](Cc2c[nH]c3ccccc23)NC(=O)[C@H](CCCCCS)NC(=O)[C@@H](Cc2ccc(O)cc2)NC(=O)[C@@H](C(C)C)NC(=O)[C@H](Cc2c[nH]cn2)NC(=O)CNC(=O)CNC(=O)[C@@H](CO)NC1=O [des2.2.0, SHA-Trp-dLeu-dSer-Gly-Gly-His-dVal-dTyr] (HELM PEPTIDE1{G.G.H.[dV].[dY].[O=C([C@H](CCCCCS)N[*:1])[*:2]].W.[dL].[dS]}$PEPTIDE1,PEPTIDE1,1:R1-9:R2$$$V2.0)", "EXPERIMENTAL_TARGET": "HDAC6 (Homo sapiens)", "HDAC6 activity raw data (signal)": 160834}
{"COMPOUND": "CCCC[C@H]1NC(=O)[C@H](Cc2ccccc2)NC(=O)[C@H](CCCCCS)NC(=O)[C@@H](CCCNC(=N)N)NC(=O)[C@H](CC(=O)O)NC(=O)[C@@H](CO)NC(=O)[C@@H](C)NC(=O)[C@H](CCCCN)NC1=O [des4.3.1, SHA-Phe-dNle-Lys-dAla-dSer-Asp-dArg] (HELM PEPTIDE1{D.[dR].[O=C([C@H](CCCCCS)N[*:1])[*:2]].F.[CCCC[C@@H](N[*:1])C(=O)[*:2]].K.[dA].[dS]}$PEPTIDE1,PEPTIDE1,1:R1-8:R2$$$V2.0)", "EXPERIMENTAL_TARGET": "HDAC6 (Homo sapiens)", "HDAC6 activity raw data (signal)": 442171}
{"COMPOUND": "NCCCC[C@@H]1NC(=O)[C@@H]2CCCN2C(=O)[C@H](CC(N)=O)NC(=O)[C@H](CCCCCS)NC(=O)CNC(=O)[C@H](Cc2c[nH]c3ccccc23)NC(=O)[C@@H](CCCCN)NC(=O)[C@H](CCC(N)=O)NC1=O [des1.1.0, SHA-Asn-Pro-Lys-Gln-dLys-Trp-Gly] (HELM PEPTIDE1{G.[O=C([C@H](CCCCCS)N[*:1])[*:2]].N.P.K.Q.[dK].W}$PEPTIDE1,PEPTIDE1,1:R1-8:R2$$$V2.0)", "EXPERIMENTAL_TARGET": "HDAC6 (Homo sapiens)", "HDAC6 activity raw data (signal)": 482006}
{"COMPOUND": "NCCCC[C@H]1NC(=O)[C@H](CCC(N)=O)NC(=O)[C@H](CCC(=O)O)NC(=O)[C@@H]2CCCN2C(=O)[C@H](CC(N)=O)NC(=O)[C@H](CCCCCS)NC(=O)CNC(=O)[C@H](Cc2c[nH]c3ccccc23)NC1=O [des1.1.1, SHA-Asn-Pro-Glu-Gln-dLys-Trp-Gly] (HELM PEPTIDE1{E.Q.[dK].W.G.[O=C([C@H](CCCCCS)N[*:1])[*:2]].N.P}$PEPTIDE1,PEPTIDE1,1:R1-8:R2$$$V2.0)", "EXPERIMENTAL_TARGET": "HDAC6 (Homo sapiens)", "HDAC6 activity raw data (signal)": 472349}

====

Target: HDAC2 (Homo sapiens, UniProt Q92769)
Construct: purchased Reaction Biology Corporation (assay run by the CRO)
Test: HDAC2 inhibition, full IC50 measurement (Reaction Biology; fluorogenic p53 peptide RHKK(Ac)AMC)
Assay type: biochemical
Conditions: Conc. 1.23E-07 M, t2
Peptide text beside a SMILES is read from it.
ENDPOINT_LABEL: HDAC2 activity raw data (signal)

{"MOLECULE": "C[C@H](O)[C@H]1NC(=O)[C@H](Cc2c[nH]c3ccccc23)NC(=O)[C@H](CCCCCS)NC(=O)[C@H](CCCCN)NC(=O)[C@@H](CC(=O)O)NC(=O)[C@@H](CCCCN)NC(=O)[C@@H](CO)NC(=O)[C@H](CC(N)=O)NC(=O)[C@H](CC(=O)O)NC1=O [des2.1.0, SHA-Trp-dThr-Asp-Asn-dSer-dLys-dAsp-Lys] (HELM PEPTIDE1{D.N.[dS].[dK].[dD].K.[O=C([C@H](CCCCCS)N[*:1])[*:2]].W.[dT]}$PEPTIDE1,PEPTIDE1,1:R1-9:R2$$$V2.0)", "EXPERIMENTAL_TARGET": "HDAC2 (Homo sapiens, UniProt Q92769)", "REPORTED_MEASUREMENT": 296559}
{"MOLECULE": "CSCC[C@H]1NC(=O)[C@@H](CO)NC(=O)[C@H](CC(N)=O)NC(=O)[C@H](CC(=O)O)NC(=O)[C@@H]([C@H](C)O)NC(=O)[C@H](Cc2c[nH]c3ccccc23)NC(=O)[C@H](CCCCCS)NC(=O)[C@H](CCCCN)NC(=O)[C@@H](CC(=O)O)NC1=O [des2.1.1, SHA-Trp-dThr-Asp-Asn-dSer-dMet-dAsp-Lys] (HELM PEPTIDE1{D.N.[dS].[dM].[dD].K.[O=C([C@H](CCCCCS)N[*:1])[*:2]].W.[dT]}$PEPTIDE1,PEPTIDE1,1:R1-9:R2$$$V2.0)", "EXPERIMENTAL_TARGET": "HDAC2 (Homo sapiens, UniProt Q92769)", "REPORTED_MEASUREMENT": 182790}
{"MOLECULE": "NCCCC[C@H]1NC(=O)[C@H](CCC(N)=O)NC(=O)[C@H](CCC(=O)O)NC(=O)[C@@H]2CCCN2C(=O)[C@H](CC(N)=O)NC(=O)[C@H](CCCCCS)NC(=O)CNC(=O)[C@H](Cc2c[nH]c3ccccc23)NC1=O [des1.1.1, SHA-Asn-Pro-Glu-Gln-dLys-Trp-Gly] (HELM PEPTIDE1{E.Q.[dK].W.G.[O=C([C@H](CCCCCS)N[*:1])[*:2]].N.P}$PEPTIDE1,PEPTIDE1,1:R1-8:R2$$$V2.0)", "EXPERIMENTAL_TARGET": "HDAC2 (Homo sapiens, UniProt Q92769)", "REPORTED_MEASUREMENT": 516299}
